Kindly supply the reported inhibition at 1 µM values for the records listed here.
Target Entity: hNAMPT protein (Homo sapiens (Human), UniProt P43490)
Sequence (P43490 whole entry): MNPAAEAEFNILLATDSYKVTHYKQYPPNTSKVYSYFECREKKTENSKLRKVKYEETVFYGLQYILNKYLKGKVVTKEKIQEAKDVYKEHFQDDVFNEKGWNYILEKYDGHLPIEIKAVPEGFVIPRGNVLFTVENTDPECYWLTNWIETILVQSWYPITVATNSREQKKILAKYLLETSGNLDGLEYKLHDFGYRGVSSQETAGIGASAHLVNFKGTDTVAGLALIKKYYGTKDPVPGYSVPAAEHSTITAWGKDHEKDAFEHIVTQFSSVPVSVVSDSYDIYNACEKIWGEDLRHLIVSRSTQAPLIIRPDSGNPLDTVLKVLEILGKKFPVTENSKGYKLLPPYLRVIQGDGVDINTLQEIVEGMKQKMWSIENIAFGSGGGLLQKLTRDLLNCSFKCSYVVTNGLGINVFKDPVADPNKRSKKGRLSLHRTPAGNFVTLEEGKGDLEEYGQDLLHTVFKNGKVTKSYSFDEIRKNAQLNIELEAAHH
Run Description: NAMPT enzyme assay (TR-FRET/HTRF, BodiPY ligand, anti 6His-Tb)
Format: binding
Details: compound concentration 1 μM; read-out: Percent Inhibition
Numbers only, in %.

Batch: inhibition at 1 µM for all items listed.
1. O=C(NCCCn1ccnc1)c1ccc2nc(N3Cc4ccccc4C3)c(-c3ccccc3)nc2c1
2. O=C(NCCc1ncc[nH]1)c1ccc2nc(N3CCCCC3)c(-c3ccc(F)cc3)nc2c1

Reply:
85
51

For the 4 compounds below, give their inhibition at 1 µM values.
1. Cn1ccc2c1CN(C(=O)c1ccc3nc(-c4ccc(F)cc4)c(-c4ccc(F)cc4)nc3c1)CC2
2. O=C(NCCCn1ccnc1)c1ccc2nc(-c3ccsc3)c(-c3ccccc3)nc2c1
3. COC1CN(c2nc3ccc(C(=O)NCCCn4ccnc4)cc3nc2-c2ccccc2)C1
4. Cn1cnc2cc(-c3nc4ccc(C(=O)NCCCn5ccnc5)cc4nc3-c3ccccc3)ccc21

Reply:
1. 15
2. 51
3. 49
4. 94

Below are 2 compounds. Give each one its inhibition at 1 µM.
1. O=C(NCCCc1ncc[nH]1)c1ccc2nc(Oc3ccccc3)c(-c3ccc(Cl)cc3)nc2c1
2. O=C(NCCCn1ccnc1)c1ccc2nc(-c3ccccc3)c(-c3ccc4cc[nH]c4c3)nc2c1

Reply:
1: 88; 2: 68
